molecular target: human GPR55 (Homo sapiens, UniProt Q9Y2T6); experiment: β-arrestin recruitment assay (PathHunter), CHO cells expressing GPR55; settings: CHO, read-out: % inhibition of LPI (1 µM)-induced β-arrestin recruitment at GPR55, test compound at 10 µM
Sequence (Q9Y2T6 whole entry): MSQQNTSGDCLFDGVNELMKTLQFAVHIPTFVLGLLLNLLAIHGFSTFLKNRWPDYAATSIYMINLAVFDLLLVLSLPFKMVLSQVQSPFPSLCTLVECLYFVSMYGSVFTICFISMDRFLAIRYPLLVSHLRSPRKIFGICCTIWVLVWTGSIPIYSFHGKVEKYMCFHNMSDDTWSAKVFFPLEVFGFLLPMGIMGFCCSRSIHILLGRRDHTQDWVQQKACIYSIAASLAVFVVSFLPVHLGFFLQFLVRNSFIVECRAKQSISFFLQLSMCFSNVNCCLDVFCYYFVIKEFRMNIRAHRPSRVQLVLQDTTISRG
MEASURE_NAME: inhibition at 10 µM (%)
I only need the number, in %, no unit after it.

Entry under review: `CCCc1ccc(O)c(-c2cc(C)ccc2O)c1` . Reported inhibition at 10 µM? 4

Cool, now `CCCCCCc1ccc(O)c(-c2cc(C)ccc2O)c1` 0

Same read-out for COc1ccc(-c2oc3cc(OC)ccc3c2C(=O)c2ccc(C#N)cc2)cc1 [Compound 6, reference compound] ? 81

And the next one, `CCCCc1ccc(O)c(-c2ccccc2O)c1` ? 35

Measured values drawn from paper PMC3813752 for this set.
